CONDITION CONTEXT: in methanol, 293.15 K
MEASURED PROPERTY: solubility (mole fraction)

Reported solubility (mole fraction) for CC(=O)Nc1cccc(N)c1 was 0.148

----------
CONDITION CONTEXT: in DMF, 278.15 K
MEASURED PROPERTY: solubility (mole fraction)
The answer should be a number; do not append a unit.

Reported solubility (mole fraction) for CC(=O)Nc1cccc(N)c1 was 0.029

----------
CONDITION CONTEXT: in isopropanol, 303.15 K
MEASURED PROPERTY: solubility (mole fraction)
The answer should be a number; do not append a unit.

Reported solubility (mole fraction) for CC(=O)Nc1cccc(N)c1 was 0.108

----------
CONDITION CONTEXT: in ethyl acetate, 278.15 K
MEASURED PROPERTY: solubility (mole fraction)

Reported solubility (mole fraction) for CC(=O)Nc1cccc(N)c1 was 0.033

----------
CONDITION CONTEXT: in ethyl acetate, 298.15 K
MEASURED PROPERTY: solubility (mole fraction)
The answer should be a number; do not append a unit.

Reported solubility (mole fraction) for CC(=O)Nc1cccc(N)c1 was 0.055

----------
CONDITION CONTEXT: in acetone, 288.15 K
MEASURED PROPERTY: solubility (mole fraction)

Reported solubility (mole fraction) for CC(=O)Nc1cccc(N)c1 was 0.081

----------
CONDITION CONTEXT: in water, 308.15 K
MEASURED PROPERTY: solubility (mole fraction)
The answer should be a number; do not append a unit.

Reported solubility (mole fraction) for CC(=O)Nc1cccc(N)c1 was 0.262

----------
CONDITION CONTEXT: in methanol, 308.15 K
MEASURED PROPERTY: solubility (mole fraction)
The answer should be a number; do not append a unit.

Reported solubility (mole fraction) for CC(=O)Nc1cccc(N)c1 was 0.351

----------
CONDITION CONTEXT: in ethyl acetate, 323.15 K
MEASURED PROPERTY: solubility (mole fraction)
The answer should be a number; do not append a unit.

Reported solubility (mole fraction) for CC(=O)Nc1cccc(N)c1 was 0.114

----------
CONDITION CONTEXT: in isopropanol, 308.15 K
MEASURED PROPERTY: solubility (mole fraction)
The answer should be a number; do not append a unit.

Reported solubility (mole fraction) for CC(=O)Nc1cccc(N)c1 was 0.138

----------
CONDITION CONTEXT: in acetone, 298.15 K
MEASURED PROPERTY: solubility (mole fraction)

Reported solubility (mole fraction) for CC(=O)Nc1cccc(N)c1 was 0.125
